method.notes: Tumor/plasma ratio study in MDA-MB-436 tumor-bearing mouse
Type: in vivo
condition.details: female NOD-SCID mice with MDA-MB-436 tumors, dosed 28 days, tumor tissue 24 hours after the last dose, LC-MS/MS, read-out: Tumor
metric.name: concentration at 24 h (ng/g)

INSERT INTO assay_data (molecule, metric_name, val) VALUES
  ('CCc1cc2ncc(CN3CCN(c4ccc(C(=O)NC)nc4)CC3)cc2[nH]c1=O [AZD5305, reference compound]', 'concentration at 24 h', 249),
  ('CO[C@H]1C[C@@H](NC(=O)c2ccc(N3C[C@H]4CN(Cc5cnc6c7c(c(=O)[nH]c6c5)COCC7)C[C@@H]4C3)c(F)n2)C1', 'concentration at 24 h', 206),
  ('O=C(NC1COC1)c1ccc(N2C[C@H]3CN(Cc4ccc5c6c(c(=O)[nH]c5c4)CCC6)C[C@@H]3C2)c(F)n1', 'concentration at 24 h', 244),
  ('O=C(NC1COC1)c1ccc(N2C[C@H]3CN(Cc4cnc5c6c(c(=O)[nH]c5c4)CCC6)C[C@@H]3C2)c(F)n1', 'concentration at 24 h', 121);

----------
Measured IC50 on PARP2 (Homo sapiens) follows.
Sequence (Q9UGN5 whole entry): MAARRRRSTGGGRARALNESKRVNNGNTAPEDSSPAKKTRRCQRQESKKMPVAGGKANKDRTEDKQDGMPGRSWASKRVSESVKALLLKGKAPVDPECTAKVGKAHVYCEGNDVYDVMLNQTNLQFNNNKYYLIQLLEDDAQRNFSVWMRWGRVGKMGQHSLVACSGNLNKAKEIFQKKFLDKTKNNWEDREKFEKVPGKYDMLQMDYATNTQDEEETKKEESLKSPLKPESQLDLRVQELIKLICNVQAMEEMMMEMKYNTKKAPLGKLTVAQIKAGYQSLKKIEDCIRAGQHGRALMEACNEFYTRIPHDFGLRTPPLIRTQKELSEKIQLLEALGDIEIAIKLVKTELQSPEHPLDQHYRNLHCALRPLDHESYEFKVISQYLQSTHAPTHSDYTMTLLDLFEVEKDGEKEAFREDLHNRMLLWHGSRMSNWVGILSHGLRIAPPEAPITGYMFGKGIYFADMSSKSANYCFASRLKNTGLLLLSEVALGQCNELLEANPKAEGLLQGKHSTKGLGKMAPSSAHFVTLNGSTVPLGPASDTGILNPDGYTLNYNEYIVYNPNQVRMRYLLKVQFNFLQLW
metric.name: IC50 (µM)

INSERT INTO assay_data (input_smiles, metric_name, units_of_measure, val) VALUES
  ('CO[C@H]1C[C@@H](NC(=O)c2ccc(N3C[C@H]4CN(Cc5cnc6c7c(c(=O)[nH]c6c5)COCC7)C[C@@H]4C3)c(F)n2)C1', 'IC50', 'µM', 1.04),
  ('CNC(=O)c1ccc(N2C[C@H]3CN(Cc4cnc5c6c(c(=O)[nH]c5c4)COCC6)C[C@@H]3C2)c(F)n1', 'IC50', 'µM', 0.5),
  ('CCc1cc2ncc(CN3C[C@@H]4CN(c5ccc(C(=O)NC)nc5)C[C@H]4C3)cc2[nH]c1=O', 'IC50', 'µM', 1.27),
  ('O=C(NC1COC1)c1ccc(N2C[C@H]3CN(Cc4ccc5c6c(c(=O)[nH]c5c4)CCC6)C[C@@H]3C2)c(F)n1', 'IC50', 'µM', 1.2),
  ('CO[C@H]1C[C@@H](NC(=O)c2ccc(N3C[C@H]4CN(Cc5ccc6c7c(c(=O)[nH]c6c5)COCC7)C[C@@H]4C3)c(F)n2)C1', 'IC50', 'µM', 0.614),
  ('O=C(NC1COC1)c1ccc(N2C[C@H]3CN(Cc4ccc5c6c(c(=O)[nH]c5c4)COCC6)C[C@@H]3C2)c(F)n1', 'IC50', 'µM', 0.676),
  ('O=C(N[C@@H]1CCOC1)c1ccc(N2C[C@H]3CN(Cc4ccc5c6c(c(=O)[nH]c5c4)COCC6)C[C@@H]3C2)c(F)n1', 'IC50', 'µM', 2.37);

----------
system.name: PARP1 (Homo sapiens, UniProt P09874)
Sequence (P09874 whole entry): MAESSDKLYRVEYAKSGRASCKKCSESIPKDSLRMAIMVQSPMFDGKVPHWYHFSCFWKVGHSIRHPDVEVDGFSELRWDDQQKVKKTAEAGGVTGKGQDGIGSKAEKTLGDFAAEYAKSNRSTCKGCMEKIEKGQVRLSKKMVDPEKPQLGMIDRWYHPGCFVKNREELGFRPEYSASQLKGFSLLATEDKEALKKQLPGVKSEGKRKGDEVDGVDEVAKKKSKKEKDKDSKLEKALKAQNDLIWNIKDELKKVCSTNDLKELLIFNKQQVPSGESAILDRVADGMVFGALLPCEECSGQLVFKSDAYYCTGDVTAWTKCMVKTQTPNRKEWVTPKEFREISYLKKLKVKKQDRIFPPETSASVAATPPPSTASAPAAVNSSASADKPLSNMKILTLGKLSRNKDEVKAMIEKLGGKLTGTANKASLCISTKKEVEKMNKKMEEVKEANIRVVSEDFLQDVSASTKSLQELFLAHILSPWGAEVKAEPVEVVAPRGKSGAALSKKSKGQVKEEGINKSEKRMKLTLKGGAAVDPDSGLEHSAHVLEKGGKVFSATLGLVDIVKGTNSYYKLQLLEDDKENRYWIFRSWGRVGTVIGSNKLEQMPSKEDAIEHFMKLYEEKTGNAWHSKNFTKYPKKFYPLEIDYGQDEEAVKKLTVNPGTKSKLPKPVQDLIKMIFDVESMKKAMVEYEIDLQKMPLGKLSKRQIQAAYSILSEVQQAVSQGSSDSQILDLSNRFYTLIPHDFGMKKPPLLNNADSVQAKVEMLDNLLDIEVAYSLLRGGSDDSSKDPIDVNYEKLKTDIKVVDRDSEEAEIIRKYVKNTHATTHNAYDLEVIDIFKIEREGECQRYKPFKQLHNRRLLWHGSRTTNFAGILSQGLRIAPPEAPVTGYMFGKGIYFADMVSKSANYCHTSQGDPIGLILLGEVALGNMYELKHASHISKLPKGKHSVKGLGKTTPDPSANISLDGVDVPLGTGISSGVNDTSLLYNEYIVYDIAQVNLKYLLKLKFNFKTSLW
pIC50: −log10 of the molar value.
metric.name: pIC50

INSERT INTO measurements (molecule, val) VALUES
  ('CCc1cc2ncc(CN3C[C@H]4CN(c5ccc(C(=O)NC)nc5F)C[C@@H]4C3)cc2[nH]c1=O', 8.01),
  ('CNC(=O)c1ccc(N2C[C@H]3CN(Cc4cnc5cc(OC)c(=O)[nH]c5c4)C[C@@H]3C2)c(F)n1', 8.11),
  ('CCC1Oc2ncc(CN3C[C@H]4CN(c5ccc(C(=O)NC6CC6)nc5F)C[C@@H]4C3)cc2NC1=O (mixture of isomers)', 7.56),
  ('CCc1cc2cnc(CN3C[C@@H]4CN(c5ccc(C(=O)NC)nc5)C[C@@H]4C3)cc2[nH]c1=O', 8.01),
  ('CCC1Oc2ncc(CN3C[C@H]4CN(c5ccc(C(=O)NC)nc5)C[C@@H]4C3)cc2NC1=O (mixture of isomers)', 6.95),
  ('CCc1cc2ncc(CN3C[C@H]4CN(c5ccc(C(=O)NCCOC)nc5)C[C@@H]4C3)cc2[nH]c1=O (racemic)', 8.22);

----------
system.name: PARP1 (Homo sapiens, UniProt P09874)
The label 1 (yes) is reserved for IC50 strictly under 8 nM; 0 (no) covers values equal to or above it.

INSERT INTO results (compound, assigned_class) VALUES
  ('O=C(N[C@H]1CCOC1)c1ccc(N2C[C@H]3CN(Cc4cnc5c6c(c(=O)[nH]c5c4)CCC6)C[C@@H]3C2)c(F)n1', '1 (yes)'),
  ('CNC(=O)c1ccc(N2C[C@H]3CN(Cc4ccc5nc(C)c(=O)[nH]c5c4)C[C@@H]3C2)c(F)n1', '0 (no)'),
  ('CNC(=O)c1ccc(N2C[C@H]3CN(Cc4cnc5c6c(c(=O)[nH]c5c4)COCC6)C[C@@H]3C2)c(F)n1', '1 (yes)'),
  ('O=C(NC1COC1)c1ccc(N2C[C@H]3CN(Cc4ccc5c6c(c(=O)[nH]c5c4)OCCC6)C[C@@H]3C2)c(F)n1', '1 (yes)'),
  ('CNC(=O)c1ccc(N2C[C@H]3CN(Cc4cnc5cc(C)c(=O)[nH]c5c4)C[C@@H]3C2)c(C)n1', '0 (no)'),
  ('CNC(=O)c1ccc(N2C[C@H]3CN(Cc4cnc5c(c4)NC(=O)[C@@H]4CCCN54)C[C@@H]3C2)c(F)n1', '0 (no)'),
  ('CNC(=O)c1ccc(N2C[C@@H]3CN(Cc4ccc5nc(C)c(=O)[nH]c5c4F)C[C@H]3C2)cn1 (racemic)', '0 (no)'),
  ('CCc1cc2ncc(CN3C[C@H]4CN(c5ccc(C(=O)NC)nc5)C[C@@H]4C3)cc2[nH]c1=O', '0 (no)'),
  ('CNC(=O)c1ccc(N2C[C@H]3CN(Cc4cc5[nH]c(=O)c(C)cc5cn4)C[C@@H]3C2)c(F)n1', '0 (no)'),
  ('CCc1cc2ncc(CN3C[C@@H]4CN(c5ccc(C(=O)NC)nc5F)C[C@H]4C3)cc2[nH]c1=O', '1 (yes)'),
  ('CNC(=O)c1ccc(N2C[C@@H]3CN(Cc4cnc5c(c4)NC(=O)[C@@H]4CCCN54)C[C@H]3C2)cn1 (racemic)', '0 (no)'),
  ('CNC(=O)c1ccc(N2C[C@H]3CN(Cc4cnc5c6c(c(=O)[nH]c5c4)CCC6)C[C@@H]3C2)c(F)n1', '0 (no)'),
  ('O=C(N[C@H]1CCOC1)c1ccc(N2C[C@H]3CN(Cc4cc5[nH]c(=O)c6c(c5cn4)CCC6)C[C@@H]3C2)c(F)n1', '0 (no)'),
  ('CCc1nc2ncc(CN3C[C@@H]4CN(c5ccc(C(=O)NC)nc5F)C[C@H]4C3)cc2[nH]c1=O', '0 (no)'),
  ('CNC(=O)c1ccc(N2C[C@H]3CN(Cc4cc5[nH]c(=O)c6c(c5cn4)COC6)C[C@@H]3C2)c(F)n1', '0 (no)'),
  ('CCc1cc2cnc(CN3C[C@@H]4CN(c5ccc(C(=O)NC)nc5F)C[C@H]4C3)cc2[nH]c1=O', '0 (no)'),
  ('CNC(=O)c1ccc(N2C[C@@H]3CN(Cc4cnc5c(c4)[nH]c(=O)n4cccc54)C[C@H]3C2)cn1 (racemic)', '0 (no)'),
  ('COCCNC(=O)c1ccc(N2C[C@H]3CN(Cc4ccc5c6c(c(=O)[nH]c5c4)COCC6)C[C@@H]3C2)cn1', '0 (no)'),
  ('CNC(=O)c1ccc(N2C[C@H]3CN(Cc4ccc5c6c(c(=O)[nH]c5c4)CCOC6)C[C@@H]3C2)cn1', '0 (no)'),
  ('O=C(NC1COC1)c1ccc(N2C[C@H]3CN(Cc4ccc5c6c(c(=O)[nH]c5c4)COCC6)C[C@@H]3C2)c(Cl)n1', '0 (no)'),
  ('CCc1cc2ncc(CN3C[C@@H]4CN(c5ccc(C(=O)NC)nc5)C[C@@H]4C3)cc2[nH]c1=O', '0 (no)');

----------
system.name: PARP1 (Homo sapiens, UniProt P09874)
The label satisfied is reserved for IC50 strictly under 8 nM; not satisfied covers values equal to or above it.

INSERT INTO assay_data (compound, assigned_class) VALUES
  ('CNC(=O)c1ccc(N2C[C@H]3CN(Cc4cnc5c6c(c(=O)[nH]c5c4)CCC6)C[C@@H]3C2)cn1', 'not satisfied'),
  ('CNC(=O)c1ccc(N2C[C@H]3CN(Cc4cc5[nH]c(=O)c6c(c5cn4)CCC6)C[C@@H]3C2)c(F)n1', 'satisfied'),
  ('O=C(NC1CC1)c1ccc(N2C[C@@H]3CN(Cc4cnc5c6c(c(=O)[nH]c5c4)COCC6)C[C@H]3C2)c(F)n1 (stereo in doubt)', 'not satisfied'),
  ('CCNC(=O)c1ccc(N2C[C@H]3CN(Cc4cnc5c6c(c(=O)[nH]c5c4)COCC6)C[C@@H]3C2)c(F)n1', 'satisfied'),
  ('O=C(NC1COC1)c1ccc(N2C[C@H]3CN(Cc4cnc5c6c(c(=O)[nH]c5c4)CCC6)C[C@@H]3C2)c(F)n1', 'satisfied'),
  ('CO[C@H]1C[C@@H](NC(=O)c2ccc(N3C[C@H]4CN(Cc5cnc6c7c(c(=O)[nH]c6c5)COCC7)C[C@@H]4C3)c(F)n2)C1', 'not satisfied'),
  ('CO[C@H]1C[C@@H](NC(=O)c2ccc(N3C[C@H]4CN(Cc5ccc6c7c(c(=O)[nH]c6c5)OCCC7)C[C@@H]4C3)c(F)n2)C1', 'satisfied');
